Reported values of Inhibition % at 50 nM for individual entries
target: T1, hPD-1-Fc (human, UniProt Q15116 25-167); experiment: blocking ELISA, hPD-1-Fc to hPD-L1-Fc
T1 construct: domain: IgV domain; also called human PD-1-Fc; not shown: human IgG1 Fc
T1 sequence (Q15116 25-167 limits assumed): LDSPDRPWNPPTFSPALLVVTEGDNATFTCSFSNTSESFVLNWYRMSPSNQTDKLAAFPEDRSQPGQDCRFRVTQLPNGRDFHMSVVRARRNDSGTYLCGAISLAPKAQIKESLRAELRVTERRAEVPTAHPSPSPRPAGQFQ

{"binder": "33G8 (antibody, V domains shown) VH: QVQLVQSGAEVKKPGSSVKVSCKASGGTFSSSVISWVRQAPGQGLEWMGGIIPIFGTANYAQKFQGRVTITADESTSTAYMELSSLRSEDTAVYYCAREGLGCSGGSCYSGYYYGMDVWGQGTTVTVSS VL: DIVMTQSPLSLPVTPGEPASISCRSSQSLLHSNGYNYLDWYLQKPGQSPQLLIYQASTLGSGVPDRFSGSGSGTDFTLKISRVEAEDVGVYYCMQGTHWPYTFGQGTKLEIK", "Inhibition % at 50 nM, %": 90.5}
{"binder": "33C4 (antibody, V domains shown, also called 780_39) VH: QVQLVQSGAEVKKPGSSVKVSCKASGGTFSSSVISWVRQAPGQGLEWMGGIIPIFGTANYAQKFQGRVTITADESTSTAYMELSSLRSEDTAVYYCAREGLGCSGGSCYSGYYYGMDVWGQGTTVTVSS VL: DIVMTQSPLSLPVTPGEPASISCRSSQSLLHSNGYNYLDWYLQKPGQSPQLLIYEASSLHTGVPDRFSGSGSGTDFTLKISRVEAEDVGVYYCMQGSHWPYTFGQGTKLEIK", "Inhibition % at 50 nM, %": 92.5}
{"binder": "31B1 (antibody, V domains shown, also called 780_38; 33B1 and 31B2 (apparent misprints)) VH: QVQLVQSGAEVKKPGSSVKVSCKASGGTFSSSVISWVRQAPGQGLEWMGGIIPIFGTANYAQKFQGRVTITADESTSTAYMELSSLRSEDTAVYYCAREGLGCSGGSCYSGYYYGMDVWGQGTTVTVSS VL: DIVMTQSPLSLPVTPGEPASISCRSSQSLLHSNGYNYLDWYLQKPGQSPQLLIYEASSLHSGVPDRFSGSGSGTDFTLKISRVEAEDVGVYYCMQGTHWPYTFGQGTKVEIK", "Inhibition % at 50 nM, %": 91.4}
{"binder": "34C1 (antibody, V domains shown) VH: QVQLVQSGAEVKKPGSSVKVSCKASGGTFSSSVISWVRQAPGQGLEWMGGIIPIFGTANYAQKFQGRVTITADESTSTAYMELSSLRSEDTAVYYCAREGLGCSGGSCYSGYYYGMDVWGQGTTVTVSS VL: DIVMTQSPLSLPVTPGEPASISCRSSESLLYSNGNTYLDWYLQKPGQSPQLLIYEVSNRASGVPDRFSGSGSGTDFTLKISRVEAEDVGVYYCMQGTRWPYTFGQGTKVEIK", "Inhibition % at 50 nM, %": 89.3}
